# target or system: P2Y purinoceptor 6 (Homo sapiens)
# Sequence (Q15077 whole entry): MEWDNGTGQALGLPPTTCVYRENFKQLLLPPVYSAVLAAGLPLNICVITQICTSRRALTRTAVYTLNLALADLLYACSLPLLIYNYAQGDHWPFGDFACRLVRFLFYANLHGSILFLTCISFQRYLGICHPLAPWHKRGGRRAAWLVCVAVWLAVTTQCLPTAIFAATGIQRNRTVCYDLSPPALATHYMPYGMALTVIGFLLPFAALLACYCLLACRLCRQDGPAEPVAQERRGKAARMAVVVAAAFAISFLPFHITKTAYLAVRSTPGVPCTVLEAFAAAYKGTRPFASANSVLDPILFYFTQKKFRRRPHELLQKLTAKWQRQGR
# assay remarks: Agonist activity at human P2Y6 receptor expressed in human 1321N1 cells coexpressing phospholipase C-activating G protein assessed as inositol phosphate production by scintillation proximity assay
# Type: functional, cell-based
observable: EC50 (µM)
Report the figure in µM without appending any unit label.

Prompt line: Name the reported EC50 value associated with the compound O=c1ccn([C@@H]2O[C@H](CP(=O)(O)OP(=O)(O)O)[C@@H](O)[C@H]2O)c(=O)[nH]1
Response line: 1.9

====

# target or system: P2Y purinoceptor 2 (Homo sapiens, UniProt P41231)
# Sequence (P41231 whole entry): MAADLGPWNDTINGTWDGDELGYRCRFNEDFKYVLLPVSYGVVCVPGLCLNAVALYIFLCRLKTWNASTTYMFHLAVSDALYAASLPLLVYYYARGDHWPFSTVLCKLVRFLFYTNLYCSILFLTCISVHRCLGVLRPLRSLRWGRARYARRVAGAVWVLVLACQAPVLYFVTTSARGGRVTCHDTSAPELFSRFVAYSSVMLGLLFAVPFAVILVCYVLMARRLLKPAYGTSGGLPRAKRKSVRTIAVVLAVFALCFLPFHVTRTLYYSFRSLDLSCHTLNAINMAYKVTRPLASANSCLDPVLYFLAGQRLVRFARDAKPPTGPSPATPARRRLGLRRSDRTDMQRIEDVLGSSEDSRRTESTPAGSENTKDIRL
# assay remarks: Agonist activity at human P2Y2 receptor expressed in human 1321N1 cells coexpressing phospholipase C-activating G protein assessed as inositol phosphate production by scintillation proximity assay
observable: EC50 (µM)
API: value field is a number in µM; no unit string.

Prompt line: Any idea what EC50 was measured for O=c1ccn([C@@H]2O[C@H](/C=C/P(=O)(O)OP(=O)(O)OP(=O)(O)O)[C@@H](O)[C@H]2O)c(=O)[nH]1 ?
Response line: 1

Prompt line: Please give the result for O=c1ccn([C@@H]2O[C@H](CCP(=O)(O)O)[C@@H](O)[C@H]2O)c(=O)[nH]1 too.
Response line: 1.6

Prompt line: Note, next up: Nc1ncnc2c1ncn2[C@@H]1O[C@H](CP(=O)(O)OP(=O)(O)OP(=O)(O)O)[C@@H](O)[C@H]1O
Response line: 1.4

Prompt line: Next: O=c1ccn([C@@H]2O[C@H](CP(=O)(O)OP(=O)(O)O)[C@@H](O)[C@H]2O)c(=O)[nH]1
Response line: 3.4

Prompt line: Then what about the compound O=c1ccn([C@@H]2O[C@H](CP(=O)(O)OP(=O)(O)OP(=O)(O)O)[C@@H](O)[C@H]2O)c(=O)[nH]1 ?
Response line: 8.6
